Sourced from PubChem BioAssay AID2060503

- Test system: 817829-284-R-J1-PDC complex spheroids, viability;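 note: spheroids exposed to agents for 7 days before readout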
- TEST SUMMARY: Anticancer human tumor 817829-284-R-J1-PDC patient-derived colon adenocarcinoma cell line growth inhibition [GQUAD]
- MEASUREMENT SETUP: curve of first compound; second compound 1 µM
- Text: DNA G-quadruplex Stabilizer Agents in Combinations in Complex Spheroids A high-throughput screen of multi-cell type tumor spheroids was designed to identify active combinations of DNA G-quadruplex stabilizer agents and targeted small molecules. […] Compounds. […] If the clinical Cmax for an agent had not been determined, the highest concentration tested was 10 microM. […]
Overview of reported IC50 across a group of molecules:

query: Item COc1ncnc(C2CC2)c1-c1ncc2cnn(Cc3ccc(-c4nc(C(F)(F)F)cn4C(C)C)cc3)c2n1 + CN(C)c1ccc(Nc2c3ccc(NC(=O)CCN4CCCC4)cc3nc3cc(NC(=O)CCN4CCCC4)ccc23)cc1 has what recorded IC50?
result: > 10000 nM

query: Item CCc1c2c(nc3ccc(O)cc13)-c1cc3c(c(=O)n1C2)COC(=O)[C@]3(O)CC + CN(C)c1ccc(Nc2c3ccc(NC(=O)CCN4CCCC4)cc3nc3cc(NC(=O)CCN4CCCC4)ccc23)cc1 has what recorded IC50?
result: 2.22 nM

query: Item C#Cc1c(F)ccc2cc(O)cc(-c3ncc4c(N5CC6CCC(C5)N6)nc(OCC56CCCN5CC(F)C6)nc4c3F)c12 (stereo not given) + CN(C)c1ccc(Nc2c3ccc(NC(=O)CCN4CCCC4)cc3nc3cc(NC(=O)CCN4CCCC4)ccc23)cc1 has what recorded IC50?
result: > 10000 nM

query: Item Nc1ccn(C2OC(CO)C(O)C2(F)F)c(=O)n1 (stereo not given) + CN(C)c1ccc(Nc2c3ccc(NC(=O)CCN4CCCC4)cc3nc3cc(NC(=O)CCN4CCCC4)ccc23)cc1 has what recorded IC50?
result: < 31.6 nM

query: Item O=c1[nH]cc(F)c(=O)[nH]1 + Cc1[nH]c2ccc(F)cc2c1-c1nc2c3cccnc3c3ncccc3c2[nH]1 has what recorded IC50?
result: 1880 nM

query: Item CCCS(=O)(=O)Nc1ccc(F)c(C(=O)c2c[nH]c3ncc(-c4ccc(Cl)cc4)cc23)c1F + Cc1[nH]c2ccc(F)cc2c1-c1nc2c3cccnc3c3ncccc3c2[nH]1 has what recorded IC50?
result: 5480 nM

query: Item O=C(c1cc(Cc2n[nH]c(=O)c3ccccc23)ccc1F)N1CCN(C(=O)C2CC2)CC1 + Cc1[nH]c2ccc(F)cc2c1-c1nc2c3cccnc3c3ncccc3c2[nH]1 has what recorded IC50?
result: > 10000 nM
